target: UniProtKB P00533; test: EGFR target modulation in HaCaT (EGFR-WT) cell line (phospho-EGFR Y1173 ELISA); settings: value in parentheses
Sequence (P00533 25-1210): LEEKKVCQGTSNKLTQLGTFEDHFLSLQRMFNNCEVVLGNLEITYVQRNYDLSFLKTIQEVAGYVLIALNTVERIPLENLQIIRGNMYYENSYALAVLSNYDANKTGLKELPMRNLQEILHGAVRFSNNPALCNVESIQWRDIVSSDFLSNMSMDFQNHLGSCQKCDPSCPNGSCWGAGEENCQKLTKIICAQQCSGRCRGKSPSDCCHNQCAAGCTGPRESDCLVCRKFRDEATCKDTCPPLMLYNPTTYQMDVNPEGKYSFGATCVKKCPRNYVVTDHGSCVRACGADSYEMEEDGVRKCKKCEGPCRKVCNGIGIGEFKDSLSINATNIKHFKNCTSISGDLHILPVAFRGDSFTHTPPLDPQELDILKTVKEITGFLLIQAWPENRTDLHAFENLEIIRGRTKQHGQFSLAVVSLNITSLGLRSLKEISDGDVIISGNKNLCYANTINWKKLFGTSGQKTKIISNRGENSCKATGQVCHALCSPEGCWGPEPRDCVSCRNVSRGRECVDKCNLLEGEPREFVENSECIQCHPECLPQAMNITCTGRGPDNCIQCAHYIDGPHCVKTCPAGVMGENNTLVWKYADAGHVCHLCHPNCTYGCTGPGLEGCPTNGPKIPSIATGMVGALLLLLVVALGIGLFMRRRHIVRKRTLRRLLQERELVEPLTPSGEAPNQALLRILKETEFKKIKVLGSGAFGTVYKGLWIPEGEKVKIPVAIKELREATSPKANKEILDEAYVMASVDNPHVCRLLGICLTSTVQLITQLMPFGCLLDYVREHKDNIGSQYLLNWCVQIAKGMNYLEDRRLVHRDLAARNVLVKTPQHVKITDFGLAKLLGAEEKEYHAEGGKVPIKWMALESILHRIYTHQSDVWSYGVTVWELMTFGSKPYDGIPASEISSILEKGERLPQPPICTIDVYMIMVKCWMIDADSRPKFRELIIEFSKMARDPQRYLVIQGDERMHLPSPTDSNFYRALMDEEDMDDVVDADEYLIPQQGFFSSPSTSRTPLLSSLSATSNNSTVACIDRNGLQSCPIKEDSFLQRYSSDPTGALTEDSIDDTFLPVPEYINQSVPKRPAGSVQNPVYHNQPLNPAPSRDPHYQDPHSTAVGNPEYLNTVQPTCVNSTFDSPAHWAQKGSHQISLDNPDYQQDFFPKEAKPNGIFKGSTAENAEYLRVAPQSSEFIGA
Binary call on IC50 with cut-off 900 nM: strictly below means 1.0, and equality or higher means 0.0.

{"columns": ["Molecule", "Group"],
 "data": [
  ["C/C=C/C(=O)N1CCCC[C@@H](n2c(NC(=O)c3ccnc(C)c3)nc3ccc(OCCN4CCCC4)c(Cl)c32)C1 [Example 17-194]", 1.0],
  ["C=CC(=O)N1CCN(C(C)=O)CC(n2c(NC(=O)c3ccnc(C)c3)nc3cccc(Cl)c32)C1 (stereo not shown) [Example 14]", 0.0],
  ["C=CC(=O)N1CCCC[C@@H](n2c(NC(=O)c3cc(C)nc(C)c3)nc3cc(CN4CCN(C)C(=O)C4)cc(C)c32)C1 [Example 17-180]", 1.0],
  ["Cc1cc(C(=O)Nc2nc3cccc(Cl)c3n2[C@@H]2CCCCN(C(=O)/C=C/CN(C3CC3)C3CC3)C2)ccn1 [Example 16]", 0.0],
  ["C=CC(=O)N1CCN(C(=O)OC(C)(C)C)CC(n2c(NC(=O)c3ccnc(C)c3)nc3cccc(Cl)c32)C1 (stereo not shown) [Example 12]", 0.0],
  ["Cc1cc(C(=O)Nc2nc3cccc(Cl)c3n2[C@@H]2CCCCN(C(=O)C3=CCCN(C)C3)C2)ccn1 [Example 3-16]", 0.0],
  ["Cc1cc(C(=O)Nc2nc3cccc(C(F)(F)F)c3n2[C@@H]2CCCCN(C(=O)/C=C/CN(C)C)C2)cc(C)n1 [Example 17-188]", 1.0]
]}
